This collection of values is drawn from the supplement of paper PMC10065799.

biological target: c-Src SH2; assay: SH2 binding enrichment of the phosphorylated peptide, bacterial display (enrichment ratio); higher = better substrate or ligand; peptides without Tyr show the background
Entries and their SH2 binding enrichment values follow.

KPLMPYMRFSR [SMARCE1_Y73_YF]; 0.412
ADLVQYFMEHH [PTPN11_Y80_E76D_YF]; 0.612
SHGQDYLAGNK [GSTA2_Y147_V149A]; 0.583
SPDMLYQYLKQ [RPAP3_Y567]; 0.68
PVVKLYATEGR [RP1_Y199_D202E]; 0.702

Identify measured SH2 binding enrichment associated with VECQVYAEDPF [PCCA_Y401_R399Q_YF]
0.498

Identify measured SH2 binding enrichment associated with KKDGPYDVVVL [PARK7_Y67_E64D]
1.07

Identify measured SH2 binding enrichment associated with SHNKFYMLVAR [MFSD8_Y134_YF]
1.04

Identify measured SH2 binding enrichment associated with NVDGKYSFLKV [GRM3_Y478_G475D_YF]
0.826

Identify measured SH2 binding enrichment associated with DFLEKYFKFGS [NNMT_Y24_YF]
0.579

Identify measured SH2 binding enrichment associated with LIQRNYKLTAQ [ALPK2_Y1975_A1978T]
0.532

Identify measured SH2 binding enrichment associated with EAVLHYKHQNQ [MTOR_Y1804]
0.677

Identify measured SH2 binding enrichment associated with FEGAIYRKDIG [GART_Y417_V421I]
0.563

Identify measured SH2 binding enrichment associated with PEADKYHLTYA [FGG_Y300_R301H]
0.655

###

target: EPHB2 (UniProt P29323); assay: phosphorylation enrichment, bacterial display (enrichment ratio); higher = better substrate or ligand; peptides without Tyr show the background
Sequence (P29323 whole entry, looked up): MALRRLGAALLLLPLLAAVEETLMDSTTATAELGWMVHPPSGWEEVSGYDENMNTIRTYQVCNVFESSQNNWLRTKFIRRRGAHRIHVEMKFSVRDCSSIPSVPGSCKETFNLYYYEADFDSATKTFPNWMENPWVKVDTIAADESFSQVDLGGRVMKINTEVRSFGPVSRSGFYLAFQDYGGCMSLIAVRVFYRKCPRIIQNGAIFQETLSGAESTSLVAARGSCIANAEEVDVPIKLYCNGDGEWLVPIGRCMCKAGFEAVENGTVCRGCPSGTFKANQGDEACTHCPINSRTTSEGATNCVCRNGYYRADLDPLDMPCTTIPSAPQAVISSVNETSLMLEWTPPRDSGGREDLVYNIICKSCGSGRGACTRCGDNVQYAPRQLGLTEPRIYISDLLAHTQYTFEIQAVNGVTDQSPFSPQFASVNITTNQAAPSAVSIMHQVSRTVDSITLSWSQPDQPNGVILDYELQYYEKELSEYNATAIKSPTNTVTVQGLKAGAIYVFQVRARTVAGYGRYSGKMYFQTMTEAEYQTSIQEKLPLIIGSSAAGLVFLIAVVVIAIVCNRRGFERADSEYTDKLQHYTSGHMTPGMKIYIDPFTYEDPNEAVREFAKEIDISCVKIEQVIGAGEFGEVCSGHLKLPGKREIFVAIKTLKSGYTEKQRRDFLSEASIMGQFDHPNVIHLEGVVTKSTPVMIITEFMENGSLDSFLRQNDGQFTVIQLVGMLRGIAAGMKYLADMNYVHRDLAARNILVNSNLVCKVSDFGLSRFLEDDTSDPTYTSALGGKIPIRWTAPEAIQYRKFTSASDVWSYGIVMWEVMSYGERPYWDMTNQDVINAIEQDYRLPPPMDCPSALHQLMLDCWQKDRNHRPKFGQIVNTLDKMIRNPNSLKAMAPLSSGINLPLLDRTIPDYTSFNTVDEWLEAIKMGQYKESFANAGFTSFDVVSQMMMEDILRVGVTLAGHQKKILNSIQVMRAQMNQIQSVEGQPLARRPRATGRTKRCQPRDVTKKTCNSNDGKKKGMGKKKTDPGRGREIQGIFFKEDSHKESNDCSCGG
VALUE_KIND: phosphorylation enrichment
Could you respond with only the numeric value?

LRTAVHHEILI [CREBBP_Y1450_Y1450H]; 0.487
QNTGNYFDLFG [PTPN11_Y62_D61N_YF]; 22.6
LRLFSYSTTIR [CYP7B1_Y365_S363F]; 0.45
RLLRGYNQSAY [HLA-C_Y137_D138N]; 0.454
VGTTAYMAPEA [IRAK4_Y354]; 0.379
LTSKPYAFTAR [NDUFS1_Y236]; 1.08
PVDNLYAEPAV [PRPS1_Y146]; 9.31
VECQVYAEDPF [PCCA_Y401_R399Q_YF]; 0.548

Identify measured phosphorylation enrichment associated with NHYKICNLCAE [PTEN_Y68_Y68C]
0.395

Identify measured phosphorylation enrichment associated with DEEEEYEYMNR [ERBB3_Y1197_D1194E]
0.625

Identify measured phosphorylation enrichment associated with LIGTPYWMAPE [PAK5_Y608_V604I]
1

Identify measured phosphorylation enrichment associated with VIKDKYPKVRF [APTX_Y209_A212V_YF]
0.373

Identify measured phosphorylation enrichment associated with SRDPFYEMLTA [CYTH1_Y382_A386T]
2.82

###

Entries and their phosphorylation enrichment values follow.
target: Fyn (UniProt P06241); test: phosphorylation enrichment, bacterial display (enrichment ratio); higher = better substrate or ligand; peptides without Tyr show the background
Sequence (P06241 whole entry, looked up): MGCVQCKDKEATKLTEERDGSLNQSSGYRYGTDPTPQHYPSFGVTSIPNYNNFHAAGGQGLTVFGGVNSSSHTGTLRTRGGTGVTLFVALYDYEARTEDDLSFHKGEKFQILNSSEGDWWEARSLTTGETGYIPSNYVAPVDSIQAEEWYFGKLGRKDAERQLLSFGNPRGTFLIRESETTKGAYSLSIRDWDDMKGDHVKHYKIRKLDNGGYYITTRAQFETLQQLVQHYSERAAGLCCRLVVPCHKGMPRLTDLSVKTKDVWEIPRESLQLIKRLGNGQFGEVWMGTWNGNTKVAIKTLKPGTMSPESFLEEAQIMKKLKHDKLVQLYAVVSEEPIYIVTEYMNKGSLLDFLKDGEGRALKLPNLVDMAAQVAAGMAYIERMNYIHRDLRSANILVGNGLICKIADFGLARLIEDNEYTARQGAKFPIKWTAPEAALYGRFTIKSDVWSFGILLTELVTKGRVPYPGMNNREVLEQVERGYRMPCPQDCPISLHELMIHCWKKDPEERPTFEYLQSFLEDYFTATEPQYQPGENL
Could you respond with only the numeric value?

GSETPYVDRTP [ESS2_Y335]; 0.451
FADIAYNFRRG [PAH_Y166_H170R_YF]; 0.409
DSFATYFRRVL [H2BW1_Y84]; 0.472
ADPQEYIPLPA [JAKtide_2014]; 0.512
RAADYYSQQMA [GBP6_Y334]; 0.371
QDRDLYPCPGT [RLF_Y671]; 0.936

Identify measured phosphorylation enrichment associated with FQKNIYSEEPR [LMNA_Y211_L215P]
1.02

###

test system: c-Abl (mouse); assay: phosphorylation enrichment, bacterial display (enrichment ratio); higher = better substrate or ligand; peptides without Tyr show the background
VALUE_KIND: phosphorylation enrichment
Could you respond with only the numeric value?

DLDFTYIFPNI [PTEN_Y27_L25F_YF]; 0.8

Identify measured phosphorylation enrichment associated with CEHRGHLFLAI [TEK_Y897_Y897H_YF]
0.806

Identify measured phosphorylation enrichment associated with IRDLKYTIENP [SND1_Y178]
0.785

###

target: FGFR3 (UniProt P22607); experiment: phosphorylation enrichment, bacterial display (enrichment ratio); higher = better substrate or ligand; peptides without Tyr show the background
Sequence (P22607 whole entry, looked up): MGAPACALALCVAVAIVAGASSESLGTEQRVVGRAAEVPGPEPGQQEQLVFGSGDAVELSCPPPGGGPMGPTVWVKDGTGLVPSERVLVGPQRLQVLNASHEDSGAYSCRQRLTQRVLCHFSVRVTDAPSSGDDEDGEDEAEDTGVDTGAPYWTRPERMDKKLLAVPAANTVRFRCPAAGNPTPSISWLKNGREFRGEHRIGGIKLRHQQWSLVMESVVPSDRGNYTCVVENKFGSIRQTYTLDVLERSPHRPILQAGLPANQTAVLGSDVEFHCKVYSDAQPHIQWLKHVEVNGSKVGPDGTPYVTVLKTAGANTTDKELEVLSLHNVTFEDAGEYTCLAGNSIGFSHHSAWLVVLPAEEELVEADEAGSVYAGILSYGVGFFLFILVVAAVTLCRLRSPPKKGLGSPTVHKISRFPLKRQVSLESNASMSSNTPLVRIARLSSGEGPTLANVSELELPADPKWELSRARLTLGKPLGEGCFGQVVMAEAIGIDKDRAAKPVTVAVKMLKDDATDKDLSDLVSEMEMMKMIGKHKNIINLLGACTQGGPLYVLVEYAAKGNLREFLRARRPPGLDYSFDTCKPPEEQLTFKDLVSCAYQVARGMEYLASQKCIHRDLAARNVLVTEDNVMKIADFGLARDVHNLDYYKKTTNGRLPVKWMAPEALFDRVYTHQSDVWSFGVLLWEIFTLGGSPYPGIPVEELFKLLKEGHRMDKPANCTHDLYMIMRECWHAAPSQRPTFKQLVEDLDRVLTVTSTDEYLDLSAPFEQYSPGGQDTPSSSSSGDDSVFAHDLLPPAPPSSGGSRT
VALUE_KIND: phosphorylation enrichment
Could you respond with only the numeric value?

Illustrative cases are given below, each with its answer.
VGTTAYMAPEA [IRAK4_Y354]; 0.517
ASTDFYKRGDF [PDHA1_Y243_YF]; 0.431
KSAAIYNPVIF [RHO_Y301_YF]; 0.557

Identify measured phosphorylation enrichment associated with RPFRPYIIRGM [LRP5_Y1531_YF]
0.88

###

biological target: SHP2-C SH2; test: SH2 binding enrichment of the phosphorylated peptide, bacterial display (enrichment ratio); higher = better substrate or ligand; peptides without Tyr show the background
Entries and their SH2 binding enrichment values follow.
Could you respond with only the numeric value?

EKSREYHRLYE [PIK3R1_Y463_D464H]; 0.589
IRKDLYSNNVL [ACTC1_Y296_A297S]; 0.835

Identify measured SH2 binding enrichment associated with LKVDVYRRSHK [FUT3_Y222_G223R]
0.931

Identify measured SH2 binding enrichment associated with MSLDQYSPSFP [FGFR1_Y776_P772S]
0.646

Identify measured SH2 binding enrichment associated with IRDLKYTIENP [SND1_Y178]
0.762

Identify measured SH2 binding enrichment associated with VIKDKYPKVRF [APTX_Y209_A212V_YF]
1.4

Identify measured SH2 binding enrichment associated with EFQLPYFNTVP [BMPR1A_Y457_M460T_YF]
0.741

Identify measured SH2 binding enrichment associated with FKDVTYLKEEK [UBE3A_Y127_T129K]
0.465

###

Entries and their phosphorylation enrichment values follow.
molecular target: Hck (UniProt P08631); test: phosphorylation enrichment, bacterial display (enrichment ratio); higher = better substrate or ligand; peptides without Tyr show the background
Sequence (P08631 whole entry, looked up): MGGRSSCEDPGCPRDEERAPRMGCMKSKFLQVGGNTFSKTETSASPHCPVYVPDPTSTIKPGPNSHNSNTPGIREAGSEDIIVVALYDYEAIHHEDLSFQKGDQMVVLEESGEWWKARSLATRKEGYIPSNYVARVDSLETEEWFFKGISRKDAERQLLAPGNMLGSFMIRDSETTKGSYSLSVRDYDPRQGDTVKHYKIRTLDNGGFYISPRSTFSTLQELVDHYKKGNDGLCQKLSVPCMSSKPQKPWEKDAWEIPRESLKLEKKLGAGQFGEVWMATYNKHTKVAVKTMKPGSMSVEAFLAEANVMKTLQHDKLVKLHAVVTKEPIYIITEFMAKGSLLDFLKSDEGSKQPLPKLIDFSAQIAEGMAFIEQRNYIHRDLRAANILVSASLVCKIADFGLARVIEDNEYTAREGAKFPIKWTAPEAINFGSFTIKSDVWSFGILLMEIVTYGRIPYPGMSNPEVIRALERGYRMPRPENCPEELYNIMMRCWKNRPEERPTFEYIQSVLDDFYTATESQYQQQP

Illustrative cases are given below, each with its answer.
QKMADYSNKLF [PDPR_Y104_YF]; 0.554
QFLMMYVWSAS [ABCD1_Y337_K336M]; 0.912

Identify measured phosphorylation enrichment associated with RCKNHYAAFSV [C1QTNF1_Y145_S143N]
0.615

###

molecular target: Fyn (UniProt P06241); experiment: phosphorylation enrichment, bacterial display (enrichment ratio); higher = better substrate or ligand; peptides without Tyr show the background
Label 1.0 for high-side phosphorylation enrichment (at or above 0.5) and 0.0 for low-side phosphorylation enrichment (below it).

Known results for sequences:
ARVANYHRDGP [CAT_Y386_Q387H]; 0.0
KLIETCFSKNY [PLP1_Y50_Y50C]; 0.0
QNTGNYFDLFG [PTPN11_Y62_D61N_YF]; 1.0
QMQNPYSSHSS [MUC13_Y501_R503S]; 1.0
LIGTPYWMAPE [PAK5_Y608_V604I]; 1.0

Textbook exercise: given the entry NDQANYSLNTD [ADA_Y290] , state whether its phosphorylation enrichment is greater than or equal to 0.5.
1.0

Textbook exercise: given the entry KDFTIYNPNLL [VANGL1_Y290] , state whether its phosphorylation enrichment is greater than or equal to 0.5.
1.0

Textbook exercise: given the entry VQDPAYLRDIN [OPRK1_Y369_D374N] , state whether its phosphorylation enrichment is greater than or equal to 0.5.
0.0

Textbook exercise: given the entry FIPFRYPKEFQ [IDS_Y234_H229Y_YF] , state whether its phosphorylation enrichment is greater than or equal to 0.5.
0.0

###

molecular target: Jak2 (UniProt O60674); test: phosphorylation enrichment, bacterial display (enrichment ratio); higher = better substrate or ligand; peptides without Tyr show the background
Sequence (O60674 whole entry, looked up): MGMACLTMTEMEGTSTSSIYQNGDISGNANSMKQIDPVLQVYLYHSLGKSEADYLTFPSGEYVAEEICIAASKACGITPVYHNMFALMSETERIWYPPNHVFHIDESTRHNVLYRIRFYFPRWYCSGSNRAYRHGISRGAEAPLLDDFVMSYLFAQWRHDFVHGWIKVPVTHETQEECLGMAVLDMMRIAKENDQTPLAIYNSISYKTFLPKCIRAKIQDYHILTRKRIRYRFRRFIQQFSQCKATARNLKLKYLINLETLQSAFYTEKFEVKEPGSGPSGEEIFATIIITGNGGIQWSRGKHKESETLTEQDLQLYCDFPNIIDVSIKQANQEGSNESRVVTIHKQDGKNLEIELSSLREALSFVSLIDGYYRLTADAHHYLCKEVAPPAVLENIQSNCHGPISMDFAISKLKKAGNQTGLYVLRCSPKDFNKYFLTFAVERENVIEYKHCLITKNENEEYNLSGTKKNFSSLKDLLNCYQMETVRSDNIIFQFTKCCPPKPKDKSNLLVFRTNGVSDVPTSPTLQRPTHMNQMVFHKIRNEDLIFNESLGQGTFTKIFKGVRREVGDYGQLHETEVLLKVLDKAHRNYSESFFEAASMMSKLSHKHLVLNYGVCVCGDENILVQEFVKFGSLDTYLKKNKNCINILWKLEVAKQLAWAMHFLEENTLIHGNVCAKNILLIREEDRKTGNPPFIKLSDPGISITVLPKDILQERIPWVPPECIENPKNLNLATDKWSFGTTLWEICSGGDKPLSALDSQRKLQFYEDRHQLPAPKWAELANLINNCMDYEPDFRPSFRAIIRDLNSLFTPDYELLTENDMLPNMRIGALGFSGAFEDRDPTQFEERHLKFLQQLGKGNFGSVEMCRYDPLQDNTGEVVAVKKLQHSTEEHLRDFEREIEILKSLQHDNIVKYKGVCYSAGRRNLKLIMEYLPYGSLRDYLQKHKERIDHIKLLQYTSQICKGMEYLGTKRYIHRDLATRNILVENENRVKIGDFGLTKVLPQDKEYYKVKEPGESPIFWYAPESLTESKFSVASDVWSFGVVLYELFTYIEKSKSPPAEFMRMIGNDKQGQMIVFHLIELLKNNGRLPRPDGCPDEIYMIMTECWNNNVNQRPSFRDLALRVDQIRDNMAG
VALUE_KIND: phosphorylation enrichment
Could you respond with only the numeric value?

Illustrative cases are given below, each with its answer.
LNCIFYKDQTG [RS1_Y166_W163C_YF]; 2.06
KDHPDYKFPPR [SOX10_Y171_Q174P_YF]; 0.564
KLQKKYGPIFS [CYP17A1_Y60_YF]; 0.583
GSETPYVDRTP [ESS2_Y335]; 0.813
TNGFTCGSSHQ [MANEA_Y331_Y331C]; 0.663
GNEEAYGSSHI [FAM171B_Y522_R524S]; 0.718
EEGNPYFSSAR [MCCC2_Y520_YF]; 0.818
SSSAIYDNPNL [DCP1B_Y191]; 0.632

# input for lookup
Identify measured phosphorylation enrichment associated with KDFTIHNPNLL [VANGL1_Y290_Y290H]
0.654

###

target: EPHB2 (UniProt P29323); test: phosphorylation enrichment, bacterial display (enrichment ratio); higher = better substrate or ligand; peptides without Tyr show the background
Categories are defined by ranges of phosphorylation enrichment, namely lo (below 0.5), mid (0.5 to below 0.7), hi (0.7 or more)

ENAGFYFRISA; hi
SHGQDYLAGNK [GSTA2_Y147_V149A]; lo

Input FKIFLYTLNDN [FN1_Y1975_YF] ; output its category
hi

Input VNFGAYINDFN [GLB1_Y488_K493N_YF] ; output its category
mid

Input QRIFQYIQSRF [DYRK1B_Y273_YF] ; output its category
lo

Input PLDGEYVTLQI [TP53_Y327_F328V] ; output its category
hi

Input ELPQTYCVSGP [DYSF_Y1684_G1679E] ; output its category
mid

Input LNPLIYTLKNA [OR4C46_Y285] ; output its category
mid

Input KNKKDYFDMFE [SLC26A3_Y526_YF] ; output its category
mid

Input LEQQKYTVTVD [IKBKB_Y199] ; output its category
hi
